Test system: HeLa Kyoto;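 further: HeLa Kyoto cells synchronized by double thymidine or nocodazole block, proteins quantified by TMT10plex mass spectrometry, three independent biological replicates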
METHOD: melting temperature (median over replicates), in situ; higher = more thermally stable
ASSAY_CONTEXT: cell cycle stage: mitosis
Catalogue of sequences with associated melting temperature
Please give a number only; it is taken to be in °C.

Sample answers from the record:
MASPGCLLCVLGLLLCGAASLELSRPHGDTAKKPIIGILMQKCRNKVMKNYGRYYIAASYVKYLESAGARVVPVRLDLTEKDYEILFKSINGILFPGGSVDLRRSDYAKVAKIFYNLSIQSFDDGDYFPVWGTCLGFEELSLLISGECLLTATDTVDVAMPLNFTGGQLHSRMFQNFPTELLLSLAVEPLTANFHKWSLSVKNFTMNEKLKKFFNVLTTNTDGKIEFISTMEGYKYPVYGVQWHPEKAPYEWKNLDGISHAPNAVKTAFYLAEFFVNEARKNNHHFKSESEEEKALIYQFSPIYTGNISSFQQCYIFD [GGH]: 60
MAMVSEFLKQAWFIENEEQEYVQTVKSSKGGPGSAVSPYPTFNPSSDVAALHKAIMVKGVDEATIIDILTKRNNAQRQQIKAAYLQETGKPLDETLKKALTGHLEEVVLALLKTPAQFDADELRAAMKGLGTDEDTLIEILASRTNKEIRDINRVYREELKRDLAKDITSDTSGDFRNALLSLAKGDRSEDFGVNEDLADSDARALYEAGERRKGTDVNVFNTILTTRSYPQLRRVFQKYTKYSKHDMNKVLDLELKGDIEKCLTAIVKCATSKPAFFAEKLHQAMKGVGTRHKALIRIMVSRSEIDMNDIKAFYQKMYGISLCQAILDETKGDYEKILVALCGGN [ANXA1]: 49.6
MSDSGEQNYGERESRSASRSGSAHGSGKSARHTPARSRSKEDSRRSRSKSRSRSESRSRSRRSSRRHYTRSRSRSRSHRRSRSRSYSRDYRRRHSHSHSPMSTRRRHVGNRANPDPNCCLGVFGLSLYTTERDLREVFSKYGPIADVSIVYDQQSRRSRGFAFVYFENVDDAKEAKERANGMELDGRRIRVDFSITKRPHTPTPGIYMGRPTYGSSRRRDYYDRGYDRGYDDRDYYSRSYRGGGGGGGGWRAAQDRDQIYRRRSPSPYYSRGGYRSRSRSRSYSPRRY [TRA2B]: 49.8

Tell me reported melting temperature for MGAKQSGPAAANGRTRAYSGSDLPSSSSGGANGTAGGGGGARAAAAGRFPAQVPSAHQPSASGGAAAAAAAPAAPAAPRSRSLGGAVGSVASGARAAQSPFSIPNSSSGPYGSQDSVHSSPEDGGGGRDRPVGGSPGGPRLVIGSLPAHLSPHMFGGFKCPVCSKFVSSDEMDLHLVMCLTKPRITYNEDVLSKDAGECAICLEELQQGDTIARLPCLCIYHKGCIDEWFEVNRSCPEHPSD [ZNRF2] , tested with HeLa Kyoto.
55.1

Now give it for MIPLLLAALLCVPAGALTCYGDSGQPVDWFVVYKLPALRGSGEAAQRGLQYKYLDESSGGWRDGRALINSPEGAVGRSLQPLYRSNTSQLAFLLYNDQPPQPSKAQDSSMRGHTKGVLLLDHDGGFWLVHSVPNFPPPASSAAYSWPHSACTYGQTLLCVSFPFAQFSKMGKQLTYTYPWVYNYQLEGIFAQEFPDLENVVKGHHVSQEPWNSSITLTSQAGAVFQSFAKFSKFGDDLYSGWLAAALGTNLQVQFWHKTVGILPSNCSDIWQVLNVNQIAFPGPAGPSFNSTEDHSKWCVSPKGPWTCVGDMNRNQGEEQRGGGTLCAQLPALWKAFQPLVKNYQPCNGMARKPSRAYKI [DNASE2] too.
56.1

Now give it for MNTVLSRANSLFAFSLSVMAALTFGCFITTAFKDRSVPVRLHVSRIMLKNVEDFTGPRERSDLGFITFDITADLENIFDWNVKQLFLYLSAEYSTKNNALNQVVLWDKIVLRGDNPKLLLKDMKTKYFFFDDGNGLKGNRNVTLTLSWNVVPNAGILPLVTGSGHVSVPFPDTYEITKSY [SPCS3] too.
53.8

Now give it for MAANKPKGQNSLALHKVIMVGSGGVGKSALTLQFMYDEFVEDYEPTKADSYRKKVVLDGEEVQIDILDTAGQEDYAAIRDNYFRSGEGFLCVFSITEMESFAATADFREQILRVKEDENVPFLLVGNKSDLEDKRQVSVEEAKNRAEQWNVNYVETSAKTRANVDKVFFDLMREIRARKMEDSKEKNGKKKRKSLAKRIRERCCIL [RALA] too.
57.4

Now give it for MESALPAAGFLYWVGAGTVAYLALRISYSLFTALRVWGVGNEAGVGPGLGEWAVVTGSTDGIGKSYAEELAKHGMKVVLISRSKDKLDQVSSEIKEKFKVETRTIAVDFASEDIYDKIKTGLAGLEIGILVNNVGMSYEYPEYFLDVPDLDNVIKKMININILSVCKMTQLVLPGMVERSKGAILNISSGSGMLPVPLLTIYSATKTFVDFFSQCLHEEYRSKGVFVQSVLPYFVATKLAKIRKPTLDKPSPETFVKSAIKTVGLQSRTNGYLIHALMGSIISNLPSWIYLKIVMNMNKSTRAHYLKKTKKN [HSD17B12] too.
53.7

The measured values listed here are drawn from the supplement of paper PMC5998384.
